Quick reference for TGI among some compounds
system: SK-MEL-28 melanoma; assay: NCI tumour cell line growth inhibition, 48 h

Worked cases, TGI given:
| COMPOUND | TGI |
| --- | --- |
| CCOC(=O)C1=C(c2ccccc2)N(Cc2ccccc2)C2(O)C=CC(=O)C3C(=O)N(c4ccccc4)C(=O)C132 (stereo unspecified) | 3.85 µM |
| CCCCCCCCCCCCCCCCCC1=NC(C)(C)CN1CCO | 3.2 µM |
| CC(C)=C1CCC(CN2CCCC2)C1=O (stereo unspecified) | 48.8 µM |
| Cc1ns/c(=N\C(=S)N(C)C)n1C | > 100 µM |

# input # get_value(readout='TGI', item= `O=C1/C(=C/c2ccccc2)CN(C(=O)Oc2ccc([N+](=O)[O-])cc2)C/C1=C\c1ccccc1` )
# output 7.65 µM

# input # get_value(readout='TGI', item= `COc1cc2c(cc1OC)[C@H]1C(=O)c3cc4c(cc3[C@H]1N(C)C2=O)OCO4` )
# output > 100 µM

# input # get_value(readout='TGI', item= `O=C(O)CCCc1nc2c(n1-c1ccccc1)C(=O)c1ccccc1C2=O` )
# output > 100 µM

# input # get_value(readout='TGI', item= `CCSc1nc(N)c2cnn(C)c2n1` )
# output > 100 µM

# input # get_value(readout='TGI', item= `C[C@H](NC(=O)CCC(F)(F)F)C(=O)N[C@@H]1C(=O)N(CCO)c2ncccc2-c2ccccc21` )
# output > 100 µM

# input # get_value(readout='TGI', item= CCOC(=O)Cc1nc2c(=O)[nH]cnc2n1C1OC(COC(C)=O)C(OC(C)=O)C1OC(C)=O (stereo unspecified) )
# output > 100 µM

# input # get_value(readout='TGI', item= NC(CO)c1ccccc1 (stereo unspecified) )
# output > 100 µM

* * *

test system: NCI-H460 lung; assay: NCI tumour cell line growth inhibition, 48 h
Where a SMILES comes first, the peptide text is derived from it. The star is where a group is joined. Palmitoyl = CCCCCCCCCCCCCCCC(=O)*
Quick reference for TGI among some compounds
# value in µM; strip the unit string

# input # get_value(readout='TGI', item= C/C(=N/Nc1ccc([N+](=O)[O-])cc1[N+](=O)[O-])C(CC(C(=O)Nc1ccccc1C)/C(C)=N\Nc1ccc([N+](=O)[O-])cc1[N+](=O)[O-])C(=O)Nc1ccccc1C (stereo not drawn) )
# output 36.4

# input # get_value(readout='TGI', item= `C[C@]12CC[C@@H]3c4ccc(O)cc4CC[C@H]3[C@@H]1CC[C@@H]2NS(=O)(=O)c1ccc(-c2ccccc2)cc1` )
# output 9.48

# input # get_value(readout='TGI', item= COC1C(CO)OC(n2c3ccccc3c3c4c(c5c6ccccc6[nH]c5c32)C(=O)NC4=O)C(O)C1OC(=O)C(N)CCCCN (stereo not drawn) )
# output 27.1

# input # get_value(readout='TGI', item= CCCCCCCCCCCCCCCC(=O)NC(CCCCN)C(=O)NCC(=O)NC(Cc1ccccc1)C(=O)N1CCCC1C(=O)NC(CO)C(=O)NC(Cc1ccc(O)cc1)C(=O)NC(CCCCN)C(=O)NC(CC(C)C)C(=O)NC(CCCN=C(N)N)C(=O)N1CCCC1C(=O)NCC(N)=O (stereo not drawn) (Palmitoyl-KGFPSYKLRPG-NH2; configuration not given here) )
# output 37.2

* * *

tested on: KM12 colon; assay: NCI tumour cell line growth inhibition, 48 h
Quick reference for TGI among some compounds

Worked cases, TGI given:
| COMPOUND | TGI |
| --- | --- |
| COC(=O)c1ccc(OCc2ccc3nc(-c4ccccc4)c(Cl)nc3c2)cc1 | > 100 µM |
| CCCCCCCC(CC(=O)O)OC(=O)CC(CCCCCCC)OC1OC(C)C(O)C(O)C1OC1OC(C)C(O)C(O)C1O (stereo unspecified) | > 100 µM |
| COC(=O)c1cc2c3c(c(C(C)=O)c(OC)c2[nH]1)NCC3 | > 50 µM |

# input # get_value(readout='TGI', item= CCOC(=O)Cc1csc(NC(=O)C(OC(=O)c2ccc(N)cc2)c2ccccc2)n1 (stereo unspecified) )
# output > 100 µM

# input # get_value(readout='TGI', item= CC1(C)CC2(C)OC2C2(C1)N=NC(=Nc1ccccc1)O2 (stereo unspecified) )
# output 28.6 µM

# input # get_value(readout='TGI', item= `COc1cc(OC)cc(N2CCN(C(=O)Nc3nc4cc(F)ccc4nc3OC)CC2)c1` )
# output > 100 µM

# input # get_value(readout='TGI', item= O=C1CC2Sc3ccccc3N=C2N1c1ccc(Cl)cc1Cl (stereo unspecified) )
# output > 100 µM

# input # get_value(readout='TGI', item= `CC(=O)c1nccc2c1c(C)nc1ccccc12` )
# output > 100 µM

# input # get_value(readout='TGI', item= OCc1ccccc1OC1OC(CO)C(O)C(O)C1O (stereo unspecified) )
# output > 100 µM

# input # get_value(readout='TGI', item= CC1=CC(c2ccccc2)n2c(nc3cc4ccccc4cc32)N1 (stereo unspecified) )
# output > 100 µM

# input # get_value(readout='TGI', item= `CCOC(=O)NNC(=O)NC12CC3CC(CC(C3)C1)C2` )
# output > 100 µM

* * *

tested on: HS 578T breast; test: NCI tumour cell line growth inhibition, 48 h
Quick reference for TGI among some compounds

| COMPOUND | TGI |
| --- | --- |
| Cc1cnc2[nH]c(-c3ccccc3)cc(=O)c2c1 | 0.0595 µM |

Note: attention shifts to another entry.
# input # get_value(readout='TGI', item= `CC(=O)N[C@@H]1CCC[C@H](C(=O)Nc2cc(-c3cnn4c3CC(C)(C)C4)c(Cl)cn2)C1` )
# output 20.1 µM

* * *

system: SK-MEL-2 melanoma; test: NCI tumour cell line growth inhibition, 48 h
RECORDED_METRIC: GI50

Worked cases, GI50 given:
| MOLECULE | RECORDED_METRIC | DATA_VALUE |
| --- | --- | --- |
| CCCCCCCCCCCCCCCCCC1=NC(C)(C)CN1CCO | GI50 | 1.97 µM |
| O=c1c2cc(F)ccc2sc2c(NCCCN3CCCC3)nc3ccccc3c12 | GI50 | 2.19 µM |
| CC(C)(C)c1ccc(S(=O)(=O)N[C@H]2CC[C@H]3[C@@H]4CCc5cc(O)ccc5[C@H]4CC[C@]23C)cc1 | GI50 | 2.45 µM |
| C[C@H](NC(=O)CCC(F)(F)F)C(=O)N[C@@H]1C(=O)N(CCO)c2ncccc2-c2ccccc21 | GI50 | > 100 µM |
| CCCCCCN(CCCCCC)CC(O)c1cccc2ccc(Cl)cc12 (configuration not stated) | GI50 | 10.2 µM |

# input Can you look up GI50 on SK-MEL-2 melanoma for `CC[C@@]1(OC(=O)CN(C)C)C(=O)OCc2c1cc1n(c2=O)Cc2cc3ccccc3nc2-1` ?
# output 1.09 µM

# input Can you look up GI50 on SK-MEL-2 melanoma for CC1(C)CC2(C)OC2C2(C1)N=NC(=Nc1ccccc1)O2 (configuration not stated) ?
# output 10.5 µM

# input Can you look up GI50 on SK-MEL-2 melanoma for `COc1ccc(S(=O)(=O)NCCNc2nccc(-c3c(-c4ccccc4)nc4sccn34)n2)cc1` ?
# output 4.98 µM

# input Can you look up GI50 on SK-MEL-2 melanoma for CC1SC2(CCCCC2)N(NC(=O)c2[nH]c3ccc(F)cc3c2-c2ccccc2)C1=O (configuration not stated) ?
# output 76.2 µM

# input Can you look up GI50 on SK-MEL-2 melanoma for `CC[C@@]1(O)C(=O)OCc2c1cc1n(c2=O)Cc2cc3c(NC(C)=O)c(O)ccc3nc2-1` ?
# output 17.8 µM

# input Can you look up GI50 on SK-MEL-2 melanoma for `CCOc1cccnc1/C=N/NC(N)=S` ?
# output 9.93 µM

# input Can you look up GI50 on SK-MEL-2 melanoma for COc1ccc(-n2nc(C)c3c2N(C)C2(C)C[C@@H]4C3(C)[C@@H]3CC4(C2)N(C)c2c(c(C)nn2-c2ccc(OC)cc2)[C@H]3C)cc1 (some centres not stated) ?
# output 7.29 µM

* * *

test system: M19-MEL melanoma; experiment: NCI tumour cell line growth inhibition, 48 h
RECORDED_METRIC: TGI

Worked cases, TGI given:
| COMPOUND | MEASURED_TARGET | TGI |
| --- | --- | --- |
| COc1ccc(CC2C(=O)NC(C)C(=O)N(C)C3Cc4ccc(cc4)Oc4cc(ccc4O)CC(C(=O)NC(C)C(=O)NC(C)C(=O)N2C)N(C)C3=O)cc1 (centres undefined) | M19-MEL melanoma | 0.0192 µM |
| CCOC(=N)CC(=O)NC(C)c1ccccc1 (centres undefined) | M19-MEL melanoma | > 100 µM |
| N#CC(=C=[N-])[n+]1ccc(Cl)cc1 | M19-MEL melanoma | 27.8 µM |

Note: attention shifts to another entry.
# input Can you look up TGI on M19-MEL melanoma for `Cc1[nH]c(=O)nc(N/N=C/c2ccc(O)cc2)c1C(=O)Nc1ccc(Cl)cc1` ?
# output > 100 µM

Origin of measurements: PubChem BioAssay (NCI)
